Entry source: paper PMC6627454

# STUDY SYSTEM: H3N2 influenza PA endonuclease (Influenza A virus)
# EXPERIMENT NOTES: PA endonuclease inhibition assay (λ-DNA digestion, agarose gel electrophoresis)
# Assay type: biochemical, Influenza A/Victoria/3/1975 (H3N2)
# CONDITION: 0.5 µg λ-DNA, PA endonuclease 0.5 mg/mL, 1 h at 37 °C, 1 mM MnCl2, pH 8; 3 measurements
ASSAY READOUT: pIC50
Scale explanation: pIC50 corresponds to minus log10 of a concentration expressed in moles per litre.

Q: Which pIC50 is listed for O=S(=O)(O)c1cc2c(O)c(c1)Cc1cc(S(=O)(=O)O)cc(c1O)Cc1cc(S(=O)(=O)O)cc(c1O)Cc1cc(S(=O)(=O)O)cc(c1O)Cc1cc(S(=O)(=O)O)cc(c1O)Cc1cc(S(=O)(=O)O)cc(c1O)Cc1cc(S(=O)(=O)O)cc(c1O)Cc1cc(S(=O)(=O)O)cc(c1O)C2 [SC8a, para-sulfonato-calix[8]arene] ?
Ans: 5.19

Q: Tell me the measured pIC50 of `O=S(=O)(O)CCCOc1c2cc(S(=O)(=O)O)cc1Cc1cc(S(=O)(=O)O)cc(c1OCCCS(=O)(=O)O)Cc1cc(S(=O)(=O)O)cc(c1OCCCS(=O)(=O)O)Cc1cc(S(=O)(=O)O)cc(c1OCCCS(=O)(=O)O)Cc1cc(S(=O)(=O)O)cc(c1OCCCS(=O)(=O)O)Cc1cc(S(=O)(=O)O)cc(c1OCCCS(=O)(=O)O)Cc1cc(S(=O)(=O)O)cc(c1OCCCS(=O)(=O)O)Cc1cc(S(=O)(=O)O)cc(c1OCCCS(=O)(=O)O)C2` , please.
Ans: 4.73

Q: Which pIC50 is listed for `O=S(=O)(O)c1cc2c(O)c(c1)Cc1cc(S(=O)(=O)O)cc(c1O)Cc1cc(S(=O)(=O)O)cc(c1O)Cc1cc(S(=O)(=O)O)cc(c1O)Cc1cc(S(=O)(=O)O)cc(c1O)Cc1cc(S(=O)(=O)O)cc(c1O)C2` ?
Ans: 4.95

Q: What value of pIC50 has been recorded for this entry: `O=S(=O)(O)CCCOc1c2cccc1Cc1cccc(c1OCCCS(=O)(=O)O)Cc1cccc(c1OCCCS(=O)(=O)O)Cc1cccc(c1OCCCS(=O)(=O)O)Cc1cccc(c1OCCCS(=O)(=O)O)Cc1cccc(c1OCCCS(=O)(=O)O)Cc1cccc(c1OCCCS(=O)(=O)O)Cc1cccc(c1OCCCS(=O)(=O)O)C2`
Ans: 4.85
